Hi there, I'd appreciate the recorded protein stability index for every entry that follows.
B1: APBB1IP (parent)
chain: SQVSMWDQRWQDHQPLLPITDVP

Variants of: B1
test: protein stability index of a GFP-peptide fusion (GPS, HEK-293T) (PSI 1-6); higher = more stable;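 note: lentivirally expressed fusions sorted by FACS into six bins by GFP to DsRed ratio, PSI derived from sequencing read proportions per bin multiplied by bin number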
setup-conditions: c terminus: native
Give the figure by itself; no unit, no explanation.

What measured protein stability index goes with SQVSMWDQRWQDHYPLLPITDVP [Q14Y] ?
2.06

Given the variant SQVSMWDQRWQDHQPLLPITGVP [D21G] , what is its reported protein stability index?
1.94

Please look up its protein stability index: SQVSMWDQRCQDHQPLLPITDVP [W10C]
3.12

// returns reported protein stability index for input SQVSMWDQRWQDHQPLLYITDVP [P18Y]
2.07

For the variant shown here, SQVSMWKQRWQDHQPLLPITDVP [D7K] , give the reported protein stability index.
1.46

GET /values?readout=protein stability index&item= SQCSMWDQRWQDHQPLLPITDVP [V3C]
1.91

Which protein stability index is listed for SQVSMWDQRWQDDQPLLPITDVP [H13D] ?
3.17

Entry under review: SQTSMWDQRWQDHQPLLPITDVP [V3T] . Reported protein stability index?
2.34

Find the recorded protein stability index belonging to SQPSMWDQRWQDHQPLLPITDVP [V3P] and report it.
2.8

Can you look up the measured protein stability index of SQVIMWDQRWQDHQPLLPITDVP [S4I] for me?
2.42

Please report the recorded protein stability index for SQVDMWDQRWQDHQPLLPITDVP [S4D] .
2.58

Name the reported protein stability index value associated with the variant SQVSMIDQRWQDHQPLLPITDVP [W6I]
2.56

Which protein stability index is reported for this variant? SQVSMWDQRWQDHQPLLCITDVP [P18C]
1.82

Name the reported protein stability index value associated with the variant SQVSMWDQRWQDHQPLLPITDLP [V22L]
2.43

What does the data say about its protein stability index? Entry: SQVSMWDPRWQDHQPLLPITDVP [Q8P]
2.13

Which protein stability index is listed for SQVSMWDQRKQDHQPLLPITDVP [W10K] ?
3.75

Would you kindly share the measured protein stability index for SQVSMWDQRWQDHQPWLPITDVP [L16W] ?
2.23

// protein stability index lookup, key: SQVSMWDQRWQDHQPLLEITDVP [P18E]
2.55

I would be grateful if you could share the reported protein stability index for SQVSMWDQRWQDHQPLLPFTDVP [I19F] .
2.79

Data request, read-out protein stability index, for SQVSMWDQRWQDHQPLLPGTDVP [I19G]
3.67

What value of measured protein stability index is listed for SQVSMWDQQWQDHQPLLPITDVP [R9Q] ?
3.39

May I ask what protein stability index has been recorded for SQVSMWDQRWQDHQPQLPITDVP [L16Q] ?
2.73

Which protein stability index is reported for this variant? SQVSMWDQRWQDHQPLLPIVDVP [T20V]
1.65

Which protein stability index reading was recorded for the variant SQVSMWDQRWQNHQPLLPITDVP [D12N] ?
2.17

Can you share its protein stability index? I mean this variant: SQVSMWDQPWQDHQPLLPITDVP [R9P]
3.64

Please give the measured protein stability index for this variant: SQVSMWDQRWQDAQPLLPITDVP [H13A]
3.06

Query (variant): SQVSMWDQRWQDHQPPLPITDVP [L16P] ; field requested: protein stability index
2.38

Form field: reported protein stability index of SQVMMWDQRWQDHQPLLPITDVP [S4M]
2.57

Endpoint output: protein stability index of SQVSMWDQRWQDHQPLYPITDVP [L17Y] . Value?
2.19

# lookup: protein stability index of SQVSMWDQRDQDHQPLLPITDVP [W10D]
3.44

Return reported protein stability index; argument: SQVSMWDQRWQDHQPLLGITDVP [P18G]
1.76

Find the recorded protein stability index belonging to SQVSMWDQRWQDHQPDLPITDVP [L16D] and report it.
3.42

Fill in the blank: the reported protein stability index of SIVSMWDQRWQDHQPLLPITDVP [Q2I] is ____.
2.75

I have this variant here, SQVSMWDQRWQPHQPLLPITDVP [D12P] , and I need its recorded protein stability index.
1.78

So what does the record say about protein stability index for SQVSMWDQRWQDHQALLPITDVP [P15A] ?
2.23

Which protein stability index is reported for this variant? SFVSMWDQRWQDHQPLLPITDVP [Q2F]
1.31

I am curious: what protein stability index value has been reported for SQVSMWDQRWQDHIPLLPITDVP [Q14I] ?
2.09

What does the record list as protein stability index for SQVSMWDQRWQDHQPLLPSTDVP [I19S] ?
3

Would you kindly share the measured protein stability index for SQVSMWGQRWQDHQPLLPITDVP [D7G] ?
1.49

Which protein stability index is listed for SQVSMWDQRWQDHQPLLPITDVI [P23I] ?
2.48

I would be grateful if you could share the reported protein stability index for SQVSMWDQRWQDHQPLKPITDVP [L17K] .
3.67

# input variant: SQVSMWDQRIQDHQPLLPITDVP [W10I] ; wanted: its protein stability index
2.81

Could you share which protein stability index value was measured for SQVSMWDQRWQDHQPLLPETDVP [I19E] ?
3.36

Query: protein stability index; subject: SQVSMWDQRQQDHQPLLPITDVP [W10Q]
3.29

Fill blank: measured protein stability index of the variant SQVSMWDQRWQDHQPLLPITFVP [D21F] is ____.
1.44

Request the reported protein stability index associated with SQVSMWDQRWQDHQPLLPITDFP [V22F]
2.72

Look at this variant and give its reported protein stability index. SQVSMWDQRWQDHQPLCPITDVP [L17C]
2.06

What protein stability index value was documented for this variant, SQVSMWDQRWQDHQPLLKITDVP [P18K] ?
2.1

Quick one: protein stability index for IQVSMWDQRWQDHQPLLPITDVP [S1I] ?
1.56

Look up protein stability index for this variant: SQVSMWDQRWQDHQPLLPINDVP [T20N]
3.23

Would you mind telling me what protein stability index value was observed for SQVSMWDQRWFDHQPLLPITDVP [Q11F] ?
1.68

Would you kindly share the measured protein stability index for SQVSMWDQRWQDHQPGLPITDVP [L16G] ?
3.07

Give the measured protein stability index of SQVSMWDQRWQDHQPLLPIQDVP [T20Q] .
2.61

Using the record for SQVSMWDQRWPDHQPLLPITDVP [Q11P] , report its protein stability index.
2.1

Given SQVSMWDQRWQDHQPLLNITDVP [P18N] , state its recorded protein stability index.
2.56

Look at this variant and give its reported protein stability index. SQVSMWAQRWQDHQPLLPITDVP [D7A]
3.25

I have this variant here, SQVSMWDQRWQDHQPLLPITDHP [V22H] , and I need its recorded protein stability index.
2.75

I'd like to know its protein stability index. The variant in question is SEVSMWDQRWQDHQPLLPITDVP [Q2E]
3.32

Given the variant SQVSMDDQRWQDHQPLLPITDVP [W6D] , what is its reported protein stability index?
4.13

Tell me the measured protein stability index of SQVLMWDQRWQDHQPLLPITDVP [S4L] , please.
2.02

Fill blank: measured protein stability index of the variant SQVSDWDQRWQDHQPLLPITDVP [M5D] is ____.
3.15

Which protein stability index is reported for this variant? SQVSMWDQMWQDHQPLLPITDVP [R9M]
3.13

Any idea what protein stability index was measured for SQVSMWDQRWQDHQPSLPITDVP [L16S] ?
2.98

For the variant shown here, SQVSMNDQRWQDHQPLLPITDVP [W6N] , give the reported protein stability index.
3.52

Fill blank: measured protein stability index of the variant SQVSMFDQRWQDHQPLLPITDVP [W6F] is ____.
2.55

Reported protein stability index, variant SQVSMWDQRWQDHQPLPPITDVP [L17P] : ____
2.84

I have this variant here, SQVSMWFQRWQDHQPLLPITDVP [D7F] , and I need its recorded protein stability index.
1.23

I have this variant here, SQVSMWDQRWQFHQPLLPITDVP [D12F] , and I need its recorded protein stability index.
1.8

What value of protein stability index has been reported for the following variant? SQVSMGDQRWQDHQPLLPITDVP [W6G]
2.95

Look up protein stability index: SQVSLWDQRWQDHQPLLPITDVP [M5L]
2.77

Can you share its protein stability index? I mean this variant: SQVSMWDQRWQDHSPLLPITDVP [Q14S]
2.38

What value of protein stability index has been reported for the following variant? SQVSMWDQRWQEHQPLLPITDVP [D12E]
2.15

Quick check: protein stability index of SQVSMWDQRWQDHQPFLPITDVP [L16F] ?
3.4

# input variant: SQVSMWSQRWQDHQPLLPITDVP [D7S] ; wanted: its protein stability index
1.61

Given the entry SQVSMWDTRWQDHQPLLPITDVP [Q8T] , report its measured protein stability index.
2.09

Consider the variant shown here: YQVSMWDQRWQDHQPLLPITDVP [S1Y] What is its recorded protein stability index?
4

Find the recorded protein stability index belonging to SQVSMWDQRWQDHQPALPITDVP [L16A] and report it.
2.95

Look up protein stability index: SQVSMWDQRWQDHQPLLPITDTP [V22T]
2.65

Need protein stability index, item SQVSMWDQRWQDHQPYLPITDVP [L16Y]
3.06

Please look up its protein stability index: SQVSMWDQYWQDHQPLLPITDVP [R9Y]
2.42

State the recorded protein stability index for this entry: SQVSMWDQRWQTHQPLLPITDVP [D12T]
2.59

Report protein stability index for SQVSMWDQRWQDHQPLLPITDVY [P23Y] please.
2.74

Entry SQVSMWDQRWQDRQPLLPITDVP [H13R] has what protein stability index?
2.58

GET /values?readout=protein stability index&item= SQVSMWDQRWQDHQPLLPIKDVP [T20K]
3.24

Could you tell me which protein stability index is on file for SQVSMWDQRWQDHQPLLPITDVL [P23L] ?
2.06

// lookup protein stability index for SQVSMWPQRWQDHQPLLPITDVP [D7P]
1.96

Need protein stability index of SQVSMWDQRWQDHQPLLPITDDP [V22D] , thanks.
3.85

For the variant shown here, SQVSMWDQRWQDHQPLLPTTDVP [I19T] , give the reported protein stability index.
3.03

Given the entry SQVSMWDQRWQDHQPLLPICDVP [T20C] , report its measured protein stability index.
2.34

Entry SQVQMWDQRWQDHQPLLPITDVP [S4Q] : reported protein stability index = ?
4.05

Report protein stability index for SQVSMWDQRWQHHQPLLPITDVP [D12H] please.
1.64
